# Test system: RPMI-8226 leukemia
# PROTOCOL NOTES: NCI tumour cell line growth inhibition, 48 h
Each record here notes measured TGI.
Record the value in µM, omitting the unit from your answer.

- CNCCn1c(=O)c2cc(OC)c(OC)cc2c2cnc3cc4c(cc3c21)OCO4: 0.915

Now for another entry.
Identify measured TGI corresponding to "CCCCCCc1cc2cc(C(=O)Nc3ccc(F)cc3)c(=N)oc2cc1O"
4.96

====

# Tested on: SF-268 CNS
# PROTOCOL NOTES: NCI tumour cell line growth inhibition, 48 h
Each record here notes measured GI50.

• NC(N)=N/N=C(\N=Nc1ccccc1)c1ccc(Cl)cc1 = 3.53 µM

// fetch GI50 for "COc1ccc(-c2cc(-c3ccc(Nc4ccnc5cc(Cl)ccc45)cc3)nc(N3CCOCC3)n2)cc1" ; system: SF-268 CNS
6.23 µM

// fetch GI50 for COc1cc(/C=C2\CCC/C(=C\c3ccc(OCC4CO4)c(OC)c3)C2=O)ccc1OCC1CO1 (stereo not given) ; system: SF-268 CNS
2.62 µM

// fetch GI50 for "N#CC(C#N)=C1CCCOc2c1ccc1ccccc21" ; system: SF-268 CNS
> 100 µM

// fetch GI50 for "NCCCOc1cc(Cl)ccc1NC(=O)c1cc2ccccc2cc1OCCCN" ; system: SF-268 CNS
1.29 µM

// fetch GI50 for C=C1C(O)C2C(=C(C)C13CC3)C(=O)C(C)(C)C2OC (stereo not given) ; system: SF-268 CNS
> 100 µM

// fetch GI50 for "CC(=O)c1ccc2c(c1)C(=O)c1sc(C(C)=O)cc1C2=O" ; system: SF-268 CNS
0.819 µM

// fetch GI50 for "COc1ccc(-c2cc(Nc3ccnc(N4CCOCC4)n3)on2)cc1" ; system: SF-268 CNS
1.85 µM

// fetch GI50 for "Nc1c(C(=O)Nc2ccccc2Cl)sc2nc3c(cc12)C(=O)CCC3" ; system: SF-268 CNS
39.3 µM

// fetch GI50 for "O=C(Nc1ccc(Cl)cc1)Nc1nccs1" ; system: SF-268 CNS
8.53 µM

// fetch GI50 for "Oc1ccc(Oc2cnc3ccccc3n2)cc1" ; system: SF-268 CNS
50.3 µM

// fetch GI50 for "c1ccc2c(c1)c1ccccc1c1ccccc21" ; system: SF-268 CNS
> 100 µM

// fetch GI50 for CCOC(=O)C1=C(N)Oc2c(sc3c(C)cccc23)C1c1ccc(F)cc1 (stereo not given) ; system: SF-268 CNS
1.61 µM

// fetch GI50 for "NCCN.O=C([O-])[O-].O=C([O-])[O-].[Co+3].[K+]" ; system: SF-268 CNS
> 100 µM

// fetch GI50 for CNC(C)[C@H]1CCC2C3CC=C4C(=O)[C@@H](NC(=O)C=C(C)C)CC[C@]4(C)C3CC[C@@]21C (stereo not given in full) ; system: SF-268 CNS
1.6 µM

====

# Test system: LOX IMVI melanoma
# PROTOCOL NOTES: NCI tumour cell line growth inhibition, 48 h
MEASURED QUANTITY: TGI (µM)
Record the value in µM, omitting the unit from your answer.

// fetch TGI for "COc1ccc(CNc2nc(NC3CCCCC3)nc(NC3CCCCC3)n2)cc1" ; system: LOX IMVI melanoma
4.44

// fetch TGI for "O=C(N[C@@H](Cc1coc2ccccc12)B(O)O)[C@@H]1C[C@H]2CC[C@@H]1O2" ; system: LOX IMVI melanoma
34.5

// fetch TGI for COc1ccc(C2(CC(C)C)CCN(S(=O)(=O)c3ccc(C)cc3)C2)cc1OC (centres undefined) ; system: LOX IMVI melanoma
74.3

// fetch TGI for "COc1cc2c3c(n(CCCN(CCO)CCO)c(=O)c2cc1OC)-c1cc2c(cc1C3=O)OCO2" ; system: LOX IMVI melanoma
0.158

// fetch TGI for "O=C(CCN1CCOCC1)Nc1cccc(-n2cc(-c3ccncc3)c(-c3ccc(Cl)c(O)c3)n2)c1" ; system: LOX IMVI melanoma
11.8

// fetch TGI for "Clc1nc(Cl)c2ncn(Cc3ccccc3Cn3cnc4c(Cl)nc(Cl)nc43)c2n1" ; system: LOX IMVI melanoma
2.65

// fetch TGI for "O=[N+]([O-])c1ccc(Sc2c3ccccc3nc3ccccc23)cn1" ; system: LOX IMVI melanoma
26.9

// fetch TGI for "Cc1ccc2[c](c1)[Sn]([c]1ccccc1)([c]1ccccc1)[c]1cc(C)ccc1N2C" ; system: LOX IMVI melanoma
29.6
